Below, each entry is listed alongside its reported pKd.
measurement.target: SARS-CoV-2 spike (S) protein (SARS-CoV-2, UniProt P0DTC2 14-1208)
Hey, just a heads up that pKd is the negative log base 10 of the concentration in molar.

Please fill in: pKd reported for antibody 291 (antibody, V domains shown) VH: QVQLVESGGGVVQPGRSLRLSCAASGFTFSSYAMHWVRQAPGKGLEWVAVISYDGSNKYYADSVKGRFTISRDNSKNTLYLQMNSLRAEDTAVYYCARASGGSYFGGMDVWGQGTTVTVSS VL: QSALTQPASVSGSPGQSITISCTGTSSDVGGYNYVSWYQQHPGKAPKLMIYEVSNRPSGVSNRFSGSKSGNTASLTISGLQAEDEADYYCSSYTSSSTLYVFGTGTKVTVL = 9.93

Please fill in: pKd reported for antibody 336 (antibody, V domains shown) VH: QVQLVESGGGVVQPGRSLRLSCAASGFTFSSYAMHWVRQAPGKGLEWVAVISYDGSNKYYADSVKGRFTISRDNSKNTLYLQMNSLRAEDTAVYYCARAQTDYYDSSGWFDYWGQGTLVTVSS VL: SYELTQPPSVSVSPGQTARITCSGDALPKQYAYWYQQKPGQAPVLVIYKDSERPSGIPERFSGSSSGTTVTLTISGVQAEDEADYYCQSADSSGTPHWVFGGGTKLTVL = 8.95

Please fill in: pKd reported for antibody 261 (antibody, V domains shown) VH: QVQLVESGGGVVQPGRSLRLSCAASGFTFSSYAMHWVRQAPGKGLEWVAVISYDGSNKYYADSVKGRFTISRDNSKNTLYLQMNSLRAEDTAVYYCARDEAYYDILTGYINAPKNYYYYGMDVWGQGTTVTVSS VL: DIQMTQSPSSLSASVGDRVTITCRASQGIRNDLGWYQQKPGKAPKRLIYAASSLQSGVPSRFSGSGSGTEFTLTISSLQPEDFATYYCLQHNSYPFTFGPGTKVDIK = 8.27

Please fill in: pKd reported for antibody 318 (antibody, V domains shown) VH: QVQLVESGGGVVPPGRSLSLPCAASGFSFSAYAMHWLRQAPGKGLEWVAVISYDGTVKYVADSVRGRFTISRDNSNNTLYLQMTSLRSDDTAVYYCARDLGALAAAPTVYFVHWGQGTLVTVSS VL: SYVLTQPPSVSVAPGKTATITCAGEDIGRKSVHWYQQKPGQAPVLVIFYYSDRPSGIPDRFSGSVSGNTATLTIGRVEAGDEADYFCQVWDRTTNHVIFGGGTKVTVL = 7.95

Please fill in: pKd reported for antibody 338 (antibody, V domains shown) VH: QVQLQESGPGLVKPSETLSLTCAVSGYSISSDYYWGWIRQPPGKGLEWIGSIYHSGSTYYNPSLKSRVTISIDTSKNQFSLKLSSVTAADTAVYYCARDPGNYDILTGIFDYWGQGTLVTVSS VL: QSALTQPASVSGSPGQSITISCTGTSSDVGVYNYVSWYQQHPGKAPKLMIYDVTNRPSGVSNRFSGSKSGNTASLTISGLQAEDEADYYCSSYTSSSTLAVYVFGTGTKVTVL = 9.05

Please fill in: pKd reported for antibody 381 (antibody, V domains shown) VH: QVQLVESGGGVVQPGRSLRLSCAASGFTFSSYAMHWVRQAPGKGLEWVAVISYDGSNKYYADSVKGRFTISRDNSKNTLYLQMNSLRAEDTAVYYCARDRQYYDILTGYYLPTSEYYFDYWGQGTLVTVSS VL: DIQMTQSPSSVSASVGDRVTITCRASQGISSWLAWYQQKPGKAPKLLIYAASSLQSGVPSRFSGSGSGTDFTLTISSLQPEDFATYYCQQANSFPPTFGGGTKVEIK = 8.18

Next:
Please fill in: pKd reported for antibody 368 (antibody, V domains shown) V domain 1: QITLKESGPTLVKPTETLTLTCAFSGFSLTKTGEAAGWIRQAPGRALEWVTVIFWDDDKRYSPSLQNRLTVTKDTSKNVVVLTMTNVDPVDTATYFCWAMGGPGKEFFGQGTRVAVSS V domain 2: QSVLTQPPSVSGAPGQRVTVSCTGTSSSIGPYSDVHWYQHIPGKAPRLLIFGTSNRPSGVPARFSGSKSGSSASLVIAGLQAEDEADYYCQSYDSSLGEIYVFGTGTTVTVL = 7.90

Please fill in: pKd reported for antibody 305 (antibody, V domains shown) VH: QVQLVESGGGVVQPGRSLRLSCAASGFTFSSYAMHWVRQAPGKGLEWVAVISYDGSNKYYADSVKGRFTISRDNSKNTLYLQMNSLRAEDTAVYYCAREQTSYDYVWGTLGAYYYYGMDVWGQGTTVTVSS VL: SSELTQDPAVSVALGQTVRITCQGDSLRSYYASWYQQKPGQAPVLVIYGKNNRPSGIPDRFSGSSSGNTASLTITGAQAEDEADYYCNSRDSSGNHLVFGGGTKLTVL = 7.86

Please fill in: pKd reported for antibody 297 (antibody, V domains shown) VH: QVQLVESGGGVVQPGRSLRLSCAASGFTFSSYAMHWVRQAPGKGLEWVAVISYDGSNKYYADSVKGRFTISRDNSKNTLYLQMNSLRAEDTAVYYCARSFRGGYYYGMDVWGQGTTVTVSS VL: DIQLTQSPSFLSASVGDRVTITCRASQGISSYLAWYQQKPGKAPKLLIYAASTLQSGVPSRFSGSGSGTEFTLTISSLQPEDFATYYCQQLNSYPLFTFGPGTKVDIK = 8.80

Please fill in: pKd reported for antibody 308 (antibody, V domains shown) VH: QLQLQESGPGLVKPSETLSLTCSVSGGSISSSSYHWGWIRQPPGKGLEWIGSIYYSGSTYYNPSLKSRVTISVDTSKNQFSLKLRSVTAADTAVYYCAGLRVVITFGGVIPKGGAFDIWGQGTMVTVSS VL: QSALTQPASVSGSPGQSITISCTGTSSDVGGYNYVSWYQQHPGKAPKLMIYDVSNRPSGVSNRFSGSKSGNTASLTISGLQAEDEADYYCSSYTSSSTVVFGGGTKLTVL = 9.31
